- SYSTEM_TESTED: sigma receptor
- PROTOCOL_TEXT: Sigma receptor binding against 3H-DTG
Where a name gives a salt, the structure may show the parent alone.
Assign pIC50 to each entry below.
Here pIC50 is given on a logarithmic scale as minus log10 of the concentration in mol/L.

Look up pIC50 with sigma receptor for this compound: N=C(NC1C2CC3CC(C2)CC1C3)NC1C2CC3CC(C2)CC1C3 (centres unmarked) [N,N'-di-(adamantan-2-yl)guanidine, Hydrochloride]
7.03

Enter reported pIC50 observed with sigma receptor for N=C(NC12CC3CC(CC(C3)C1)C2)NC12CC3CC(CC(C3)C1)C2
7.78

* * *

Give activity at 30 µM for every item shown.
- Test system: 3H-glutamate release from rat brain synaptosomes
- PROTOCOL_TEXT: Inhibition of K+-evoked 3H-glutamate release from synaptosomes (rapid superfusion)
- Assay type: cell-based
- CONDITIONS: Rattus norvegicus, read-out: relative level of glutamate release
- Description: To study the release of presynaptic ^3 H-glutamate, synaptosomes from young rats were used. CD Male rats of 4 to 6 weeks (50-75 g) were used for the preparation of synaptosomes. Rats were killed by decapitation with guillotine and the skull bone was opened in the center with the pointed blade of dissection scissors. The bone is then peeled away with a bone cutter and the brain is pried with a micro spatula. […]
Counter-ions that a name gives are not always drawn.
Use % as the unit, but write only the number.

Which value of activity at 30 µM has been reported for C1CCC(N=C(NNC(=NC2CCCCC2)NC2CCCCC2)NC2CCCCC2)CC1 in the records?
51

Please report the recorded activity at 30 µM for Cc1ccccc1CNCc1ccccc1C .
100

Record request: activity at 30 µM value, item N=C(Nc1ccccc1I)NC12CC3CC(CC(C3)C1)C2
39

Entry CCc1cccc(NC(=N)N(C)c2cccc(CC)c2)c1 : reported activity at 30 µM = ?
88

Can you look up the measured activity at 30 µM of N=C(Nc1ccccc1I)N[C@H]1C[C@H]2CC[C@@H]1C2 (relative stereo) for me?
77

Query: activity at 30 µM; subject: N=C(Nc1ccccc1I)NC1C2CC3CC(C2)CC1C3 (centres unmarked)
74

For N=C(NC12CC3CC(CC(C3)C1)C2)NC12CC3CC(CC(C3)C1)C2 , what is its reported activity at 30 µM?
45

Query (compound): CC(C)c1ccccc1NC(=N)Nc1cccc2ccccc12 ; field requested: activity at 30 µM
100

# get_value(readout='activity at 30 µM', item= N=C(NC1CCCCC1)NC12CC3CC(CC(C3)C1)C2 )
120

# lookup: activity at 30 µM of CCc1cccc(NC(=N)Nc2cccc3ccccc23)c1
59

Which activity at 30 µM value is on record for Cc1ccccc1NC(=N)NC12CC3CC(CC(C3)C1)C2 ?
52

Recorded activity at 30 µM for CC(C)c1ccccc1NC(=N)N(C)c1cccc2ccccc12 , please?
95

Give the measured activity at 30 µM of Cc1ccccc1NC(=N)NC1CCCCC1 .
100

What value of activity at 30 µM has been recorded for this entry: Cc1ccccc1NC(=N)NC1C2CC3CC(C2)CC1C3 (centres unmarked)
100

Given N=C(NC1C2CC3CC(C2)CC1C3)NC1C2CC3CC(C2)CC1C3 (centres unmarked) [N,N'-di-(adamantan-2-yl)guanidine, Hydrochloride] , state its recorded activity at 30 µM.
40

Dear colleague, I am looking for the recorded activity at 30 µM of the following compound: N=C(Nc1cccc2ccccc12)Nc1cccc2ccccc12
19

Given the entry N=C(Nc1ccccc1I)Nc1cccc2ccccc12 , report its measured activity at 30 µM.
77
